- System: Pseudomonas aeruginosa
- assay remarks: Antibacterial activity against Pseudomonas aeruginosa 1062 assessed as growth inhibition
- Assay type: functional
Here, each record is paired with measured MIC data.
Express it in µg/mL; write the number only.

Example compounds with recorded MIC:
compound: CC1(C)S[C@@H]2[C@H](NC(=O)C(C(=O)O)c3ccccc3)C(=O)N2[C@H]1C(=O)O (stereo partly specified) [CARBENICILLIN]
tested on: Pseudomonas aeruginosa
MIC [µg/mL]: 63

compound: Cn1nnnc1SCC1=C(C(=O)[O-])N2C(=O)[C@@H](NC(=O)C(NC(=O)C3CCC(C(=O)[O-])O3)c3ccccc3)[C@H]2SC1.[Na+].[Na+] (mixture of isomers)
tested on: Pseudomonas aeruginosa
MIC [µg/mL]: 125

Problem: Entry Cn1nnnc1SCC1=C(C(=O)[O-])N2C(=O)[C@@H](NC(=O)C(NC(=O)CSCC(=O)[O-])c3ccccc3)[C@H]2SC1.[Na+].[Na+] (stereo partly specified) : reported MIC = ?
Solution: 500

====

- Test system: Pseudomonas aeruginosa
- assay remarks: Antibacterial activity against Pseudomonas aeruginosa 1062 assessed as growth inhibition
- Assay type: functional
reported endpoint: MIC (µg/mL)
Unit µg/mL implied. Number only.

Example results:
compound: Cn1nnnc1SCC1=C(C(=O)[O-])N2C(=O)[C@@H](NC(=O)C(NC(=O)C3OC3C(=O)[O-])c3ccccc3)[C@H]2SC1.[Na+].[Na+] (mixture of isomers)
readout unit: µg/mL
readout value: 63
//
compound: Cn1nnnc1SCC1=C(C(=O)[O-])N2C(=O)[C@@H](NC(=O)C(NC(=O)COCC(=O)[O-])c3ccccc3)[C@H]2SC1.[Na+].[Na+] (stereo partly drawn)
readout unit: µg/mL
readout value: 250

Next:
Problem: Form field: MIC recorded for Cn1nnnc1SCC1=C(C(=O)[O-])N2C(=O)[C@@H](NC(=O)C(NC(=O)[C@H]3C[C@H]3C(=O)[O-])c3ccccc3)[C@H]2SC1.[Na+].[Na+] (mixture of isomers) with Pseudomonas aeruginosa (enter value)
Solution: 250

====

- System: Salmonella paratyphi
- assay remarks: Antibacterial activity against Salmonella paratyphi ATCC 12176 assessed as growth inhibition by two-fold agar dilution method
- Assay type: functional, Salmonella enterica subsp. enterica serovar Paratyphi A
- settings: Salmonella enterica
Rule: MIC below 6 µg/mL gives True. Equal to or above 6 µg/mL gives False.

Some entries whose results are on file:
compound: CC(=O)OCC1=C(C(=O)[O-])N2C(=O)[C@@H](NC(=O)C(NC(=O)C3CO3)c3ccccc3)[C@H]2SC1.[Na+] (mixture of isomers)
group label: False

compound: CC(=O)OCC1=C(C(=O)[O-])N2C(=O)[C@@H](NC(=O)C(NC(=O)[C@H]3C[C@H]3C(=O)[O-])c3ccccc3)[C@H]2SC1.[Na+].[Na+] (mixture of isomers)
group label: False

compound: CC(=O)OCC1=C(C(=O)O)N2C(=O)[C@@H](NC(=O)Cc3cccs3)[C@H]2SC1
group label: True

compound: Cn1nnnc1SCC1=C(C(=O)[O-])N2C(=O)[C@@H](NC(=O)C(NC(=O)[C@@H]3O[C@@H]3C(=O)[O-])c3ccccc3)[C@H]2SC1.[Na+].[Na+] (mixture of isomers)
group label: False

compound: Cn1nnnc1SCC1=C(C(=O)[O-])N2C(=O)[C@@H](NC(=O)C(NC(=O)[C@H]3C[C@H]3C(=O)[O-])c3ccccc3)[C@H]2SC1.[Na+].[Na+] (mixture of isomers)
group label: True

Problem: Report whether reported MIC is lower than 6 µg/mL (strictly) for Cn1nnnc1SCC1=C(C(=O)[O-])N2C(=O)[C@@H](NC(=O)C(NC(=O)C3CO3)c3ccccc3)[C@H]2SC1.[Na+] (mixture of isomers)
Solution: False

Problem: Given Cn1nnnc1SCC1=C(C(=O)[O-])N2C(=O)[C@@H](NC(=O)C(NC(=O)CSCC(=O)[O-])c3ccccc3)[C@H]2SC1.[Na+].[Na+] (some centres undefined) , is recorded MIC strictly lower than 6 µg/mL?
Solution: True

Problem: Could you please tell me whether MIC recorded for CC(=O)OCC1=C(C(=O)O)N2C(=O)[C@@H](NC(=O)C(NC(=O)CSCC(=O)O)c3ccccc3)[C@H]2SC1 (some centres undefined) is less than 6 µg/mL?
Solution: False

Problem: Hello, is MIC of the following compound strictly smaller than 6 µg/mL? Cn1nnnc1SCC1=C(C(=O)[O-])N2C(=O)[C@@H](NC(=O)C(NC(=O)COCC(=O)[O-])c3ccccc3)[C@H]2SC1.[Na+].[Na+] (some centres undefined)
Solution: True

====

- System: Morganella morganii
- assay remarks: Antibacterial activity against indole positive Proteus morganii 179 assessed as growth inhibition by two-fold agar dilution method
- Type: functional
Each record here notes measured MIC.
Write down the numeric answer in µg/mL and omit the unit.

molecule: Cn1nnnc1SCC1=C(C(=O)[O-])N2C(=O)[C@@H](NC(=O)C(NC(=O)C3OC3C(=O)[O-])c3ccccc3)[C@H]2SC1.[Na+].[Na+] (mixture of isomers)
readout unit: µg/mL
MIC: 0.4

Problem: So what does the record say about MIC for CC(=O)OCC1=C(C(=O)[O-])N2C(=O)[C@@H](NC(=O)C(NC(=O)[C@H]3C[C@H]3C(=O)[O-])c3ccccc3)[C@H]2SC1.[Na+].[Na+] (mixture of isomers) ?
Solution: 12.5

Problem: Entry under review: Cn1nnnc1SCC1=C(C(=O)O)N2C(=O)[C@@H](NC(=O)C(N)c3ccccc3)[C@H]2SC1 (stereo not given in full) . Reported MIC?
Solution: 6.3

Problem: Item under review: CC1(C)S[C@@H]2[C@H](NC(=O)C(C(=O)O)c3ccccc3)C(=O)N2[C@H]1C(=O)O (stereo not given in full) [CARBENICILLIN] . Reported MIC?
Solution: 0.8

====

- System: Pseudomonas aeruginosa
- assay remarks: Antibacterial activity against Pseudomonas aeruginosa 1062 assessed as growth inhibition
- Type: functional
Catalogue of MIC values

compound: Cn1nnnc1SCC1=C(C(=O)[O-])N2C(=O)[C@@H](NC(=O)C(NC(=O)[C@@H]3O[C@@H]3C(=O)[O-])c3ccccc3)[C@H]2SC1.[Na+].[Na+] (mixture of isomers)
tested on: Pseudomonas aeruginosa
MIC: > 500 µg/mL
--
compound: Cn1nnnc1SCC1=C(C(=O)[O-])N2C(=O)[C@@H](NC(=O)C(NC(=O)C3CO3)c3ccccc3)[C@H]2SC1.[Na+] (mixture of isomers)
tested on: Pseudomonas aeruginosa
MIC: > 500 µg/mL

Problem: Endpoint output: MIC of Cn1nnnc1SCC1=C(C(=O)[O-])N2C(=O)[C@@H](NC(=O)C(NC(=O)CCCC(=O)[O-])c3ccccc3)[C@H]2SC1.[Na+].[Na+] (stereo partly drawn) . Value?
Solution: > 500 µg/mL
